Test system: MDA-MB-435 melanoma
ASSAY REMARKS: NCI-60 one-dose screen, 48 h
TEST CONDITIONS: 10 µM unless noted
About 83,000 compounds went through this panel and 20% of them were active in at least one assay; those are over-represented in the sample as a whole. Active and inactive are the calls of the source. Rule for the calls: active = growth percent below 10; inactive = the rest.
Outcome codes: class 1 for active, class 0 for inactive

>  <COMPOUND>
CC1(C)C(=O)/C(=C\c2ccco2)C[C@]2(C)[C@H]3CC=C4[C@@H]5C[C@](C)(C(=O)O)CC[C@]5(C)CC[C@@]4(C)[C@]3(C)CC[C@@H]12

>  <GROUP>
class 1

$$$$
>  <COMPOUND>
O=C(CCCCCCSc1nc(-c2ccc(Cl)cc2)cc(-c2ccc(Cl)cc2)n1)NO

>  <GROUP>
class 0

$$$$
>  <COMPOUND>
Cc1ccc(S(=O)(=O)Oc2ccc(Br)cc2Br)cc1

>  <GROUP>
class 1

$$$$
>  <COMPOUND>
Cc1ccc(-c2cc(-c3ccc(C)cc3)nc(N3CCN(CCNc4ccnc5cc(Cl)ccc45)CC3)n2)cc1

>  <GROUP>
class 0

$$$$
>  <COMPOUND>
COc1cc2c(c(OC)c1OC)-c1cc(I)c(O)cc1[C@@H](NC(C)=O)CC2

>  <GROUP>
class 1

$$$$
>  <COMPOUND>
O=C(N=c1n(-c2ccccc2)nc2n1CCN2C1=NCCN1)c1ccc(Cl)cc1

>  <GROUP>
class 0

$$$$
>  <COMPOUND>
CCCc1cc2cc(-n3nc(C)c4c3CC(C)(C)CC4=O)cc(NC3CCSCC3)c2c(=O)[nH]1

>  <GROUP>
class 0

$$$$
>  <COMPOUND>
O=C(COc1cccc(/C=C2\Oc3ccccc3C2=O)c1)c1ccc([N+](=O)[O-])cc1

>  <GROUP>
class 0

$$$$
>  <COMPOUND>
Nc1nnc(CSc2nnc3n(Cc4ccccc4)c(=O)c4c5c(sc4n23)CCCC5)s1

>  <GROUP>
class 0

$$$$
>  <COMPOUND>
CCCSc1nc(N)nc2nc[nH]c12

>  <GROUP>
class 0

$$$$
>  <COMPOUND>
Cc1ccc(NC(=O)N[C@@H](Cc2cc(F)cc(F)c2)C(=O)N[C@@H]2C(=O)N3CCC[C@H]3C(=O)N3CCCC[C@H]3C(=O)N[C@@H](C)C(=O)N3C[C@H](C)C[C@H]3C(=O)O[C@H]2C)cc1

>  <GROUP>
class 0

$$$$
>  <COMPOUND>
COc1ccc2nc3cc(Cl)ccc3c(Nc3ccc(O)c(CN4CCCC4)c3)c2c1

>  <GROUP>
class 1

$$$$
>  <COMPOUND>
O=C(NCCCCCCCNC(=O)OCc1ccc2c(Cl)cc(Cl)c(O)c2n1)OCc1ccc2c(Cl)cc(Cl)c(O)c2n1

>  <GROUP>
class 1

$$$$
>  <COMPOUND>
Cc1ccc(NC(=O)N[C@@H](Cc2cc(F)cc(F)c2)C(=O)N[C@@H]2C(=O)N3CCC[C@H]3C(=O)N3CCOC[C@H]3C(=O)N[C@@H](C)C(=O)N3C[C@H](C)C[C@H]3C(=O)O[C@H]2C)cc1

>  <GROUP>
class 0

$$$$
>  <COMPOUND>
CC[C@]12C=CCN3CC[C@@]4(c5ccc(OC)cc5N(C)[C@H]4[C@@](O)(C(=O)OC)[C@@H]1OC(=O)CCC(=O)O[C@H]1CC[C@H]4[C@@H]5CCC6=CC(=O)CC[C@@H]6[C@H]5CC[C@]14C)[C@@H]32

>  <GROUP>
class 1

$$$$
>  <COMPOUND>
CCCn1ccnc1C(O)c1ccc(OCc2ccccc2)c(OC)c1 (stereo unspecified)

>  <GROUP>
class 0

$$$$
